# System: Mice
# Experiment Summary: animal or person
# Type: in vivo
# Run Parameters: Mus musculus, po, read-out: MES test Protection %
Readout Label: responders at 90 mg/kg (%)
State the answer as a number, implicitly in %.

CO[C@@H](c1ccc(F)cc1)[C@H](C)OC(N)=O    33.3
C[C@@H](OC(N)=O)[C@@H](OC(N)=O)c1ccccc1Cl    66.6
COCO[C@@H](c1cccc(Cl)c1Cl)[C@H](C)OC(N)=O    100

Record CO[C@@H](C)[C@@H](OC(N)=O)c1ccccc1I , field responders at 90 mg/kg: 100

Record CO[C@@H](c1ccc(Cl)cc1Cl)[C@H](C)OC(N)=O , field responders at 90 mg/kg: 100

Record CO[C@H](c1ccccc1Cl)[C@H](C)OC(N)=O , field responders at 90 mg/kg: 100

Record C[C@H](OC(N)=O)[C@@H](OC(N)=O)c1c(F)cccc1Cl , field responders at 90 mg/kg: 33.3

Record CCCC[C@H](OC(N)=O)[C@@H](OCOC)c1ccccc1Cl , field responders at 90 mg/kg: 100

Record CCCC[C@H](OC(N)=O)[C@@H](OCOC)c1ccccc1I , field responders at 90 mg/kg: 100

###

Quick reference: responders at 90 mg/kg of the listed items.
# Tested on: Mice
# Experiment Summary: animal or person
# Format: in vivo
# Run Parameters: Mus musculus, po, read-out: MES test Protection %
State the answer as a number, implicitly in %.

// known answers, use as guide
CC[C@H](OC(N)=O)[C@@H](OCOC)c1ccccc1Cl [Example 9]    100
CO[C@@H](c1cccc(I)c1)[C@@H](OC(N)=O)C(C)C [Example 177]    66.6
COCO[C@@H](C)[C@@H](OC(N)=O)c1ccccc1I [Example 282]    33.3

Lab entry: Mice assay, compound C[C@H](OC(N)=O)[C@@H](OC(N)=O)c1ccccc1I [Example 259] , responders at 90 mg/kg = 66.6
